Data provenance: the NIST ThermoML archive (doi:10.1021/je050316s)

The entries below come with measured activity coefficient values attached.
ASSAY PROTOCOL: activity coefficient (dimensionless); of the first substance listed, at infinite dilution; xn = mol fraction of the nth substance listed
EXPERIMENTAL CONDITIONS: 373.15 K; Liquid; Differential ebulliometry; x1 = 0

Illustrative cases are given below, each with its answer.
# MOLECULE, RESULT
measured = [
    ("NC1CCCCC1 [cyclohexylamine] + Cc1ccccc1", 1.12),
    ("NC1CCCCC1 [cyclohexylamine] + CCCCCCCC", 1.5),
    ("Cc1ccccc1 [toluene] + NC1CCCCC1", 1.13),
    ("NC1CCCCC1 [cyclohexylamine] + CCc1ccccc1", 1.09),
    ("CCc1ccccc1 [ethylbenzene] + NC1CCCCC1", 1.16),
]

Q) Entry CCCCCCCC [octane] + NC1CCCCC1 : reported activity coefficient = ?
A) 1.29

====

ASSAY PROTOCOL: refractive index (Na D-line) (dimensionless)
EXPERIMENTAL CONDITIONS: 293.15 K; 101.33 kPa; Liquid; Standard Abbe refractometry
The entries below come with measured refractive index values attached.
Could you keep your reply to the number by itself?

Illustrative cases are given below, each with its answer.
# SAMPLE SMILES, METRIC NAME, QUANTITATIVE RESULT
data = [
    ("CCc1ccccc1", "refractive index", 1.496),
    ("O", "refractive index", 1.3336),
    ("Cc1ccccc1", "refractive index", 1.496),
    ("Nc1ccccc1", "refractive index", 1.5862),
    ("CCCCCCCCC", "refractive index", 1.4055),
]

Attention now shifts to the item below.
Q) Entry CCCCCCCCCCC : reported refractive index = ?
A) 1.4162

====

ASSAY PROTOCOL: activity coefficient (dimensionless); of the first substance listed, at infinite dilution; xn = mol fraction of the nth substance listed
EXPERIMENTAL CONDITIONS: 393.15 K; Liquid; Differential ebulliometry; x1 = 0
The entries below come with measured activity coefficient values attached.
Could you keep your reply to the number by itself?

Illustrative cases are given below, each with its answer.
# MOLECULE, QUANTITATIVE RESULT
data = [
    ("NC1CCCCC1 [cyclohexylamine] + CCCCCCCC", 1.42),
    ("CCc1ccccc1 [ethylbenzene] + NC1CCCCC1", 1.13),
    ("CCCCCCCC [octane] + NC1CCCCC1", 1.2),
    ("NC1CCCCC1 [cyclohexylamine] + CCc1ccccc1", 1.06),
    ("Cc1ccccc1 [toluene] + NC1CCCCC1", 1.06),
]

Attention now shifts to the item below.
Q) Entry NC1CCCCC1 [cyclohexylamine] + Nc1ccccc1 : reported activity coefficient = ?
A) 0.94

====

ASSAY PROTOCOL: activity coefficient (dimensionless); of the first substance listed, at infinite dilution; xn = mol fraction of the nth substance listed
EXPERIMENTAL CONDITIONS: 353.15 K; Liquid; Differential ebulliometry; x1 = 0
The entries below come with measured activity coefficient values attached.
Could you keep your reply to the number by itself?

Illustrative cases are given below, each with its answer.
# COMPOUND, activity coefficient
measured = [
    ("Cc1ccccc1 [toluene] + NC1CCCCC1", 1.14),
    ("CCc1ccccc1 [ethylbenzene] + NC1CCCCC1", 1.18),
    ("NC1CCCCC1 [cyclohexylamine] + Cc1ccccc1", 1.19),
    ("NC1CCCCC1 [cyclohexylamine] + CCCCCCCC", 1.61),
    ("CCCCCCCC [octane] + NC1CCCCC1", 1.36),
]

Attention now shifts to the item below.
Q) Entry NC1CCCCC1 [cyclohexylamine] + CCc1ccccc1 : reported activity coefficient = ?
A) 1.13
